- Test system: H1975 (EGFR L858R/T790M)
- Protocol summary: Proliferation (CellTiter-Glo), H1975
- Format: cell-based, human
- Condition details: Homo sapiens, NCI-H1975; H1975, EGFR L858R/T790M, 72 hours; read-out: GI50
Property name: GI50 (nM)
Expressed in nM, but write only the number.

Suppose we examine the molecule C=CC(=O)Nc1cccc(Nc2nc(Nc3ccc(N4CCN(C(C)=O)CC4)cc3OC)ncc2C(F)(F)F)c1 ; what GI50 value has been reported?
440

Suppose we examine the molecule C=CC(=O)N1CCC[C@@H](n2nc(-c3ccc(Oc4ccccc4)cc3)c3c(N)ncnc32)C1 ; what GI50 value has been reported?
1200

* * *

- System: H1975 EGFR (L858R/T790M)
- Protocol summary: Colony formation assay, H1975
- Assay type: cell-based, human
- Condition details: read-out: EC50 colony formation; H1975, 10 days
Property name: pEC50
pEC50 here: minus log base 10 of the concentration, concentration in moles per litre.

Suppose we examine the compound C=CC(=O)Nc1cc(Nc2nccc(-c3cn(C)c4ccccc34)n2)c(OC)cc1N(C)CCN(C)C ; what pEC50 value has been reported?
6.93

* * *

- System: H3255 EGFR L858R
- Protocol summary: Colony formation assay, H3255
- Format: cell-based, human
- Condition details: H3255, 10 days; read-out: EC50 colony formation
Property name: EC50 (nM)
Expressed in nM, but write only the number.

Suppose we examine the molecule C=CC(=O)Nc1cccc(Oc2nc(Nc3ccc(N4CCN(C)CC4)cc3OC)ncc2Cl)c1 ; what EC50 value has been reported?
89

* * *

- System: H3255 EGFR L858R
- Protocol summary: Colony formation assay, H3255
- Format: cell-based, human
- Condition details: Homo sapiens, NCI-H3255, 240 h, read-out: EC50 colony formation, H3255, 10 days
Property name: pEC50
pEC50 here: minus log base 10 of the concentration, concentration in moles per litre.

Suppose we examine the compound C=CC(=O)Nc1cc(Nc2nccc(-c3cn(C)c4ccccc34)n2)c(OC)cc1N(C)CCN(C)C [AZD-9291, AZD9291] ; what pEC50 value has been reported?
8.25
